All figures here come from patent US8796256B2.

- TESTED_SYSTEM: UniProt P11474
- Sequence (P11474 193-421 limits assumed, species assumed): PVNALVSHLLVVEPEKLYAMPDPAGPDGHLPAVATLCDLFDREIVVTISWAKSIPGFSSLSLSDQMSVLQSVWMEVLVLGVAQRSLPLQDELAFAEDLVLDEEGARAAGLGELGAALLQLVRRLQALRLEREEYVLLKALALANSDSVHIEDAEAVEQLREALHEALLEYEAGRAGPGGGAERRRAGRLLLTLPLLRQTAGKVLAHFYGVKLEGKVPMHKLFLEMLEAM
- PROTOCOL: TR-FRET assay (disruption of co-activator peptide binding to ERR1 LBD)
- Type: biochemical
- MEASUREMENT_SETUP: 6 nM 6His-ERR1LBD, 6 nM GST-SRC-2 peptide; average of 3 independent experiments
RECORDED_ENDPOINT: log10 of EC50 (log10 of the value in µM)
log10 EC50, µM

These solved cases illustrate the format of a correct answer.
MOLECULE: O=C1S/C(=C\c2ccc3c(cnn3Cc3ccc(Cl)cc3C(F)(F)F)c2)C(=O)N1C[C@@H]1C[C@H](O)CN1 (stereo in doubt) [Compound 286]
READOUT_VALUE: -0.34
--
MOLECULE: O=C1S/C(=C\c2ccc3c(cnn3Cc3ccc(Cl)cc3C(F)(F)F)c2)C(=O)N1C1CCNCC1 [Compound 113]
READOUT_VALUE: -1.80
--
MOLECULE: CN1CC[C@@H](N2C(=O)S/C(=C\c3ccc4c(cnn4Cc4ccc(Cl)cc4C(F)(F)F)c3)C2=O)[C@H](F)C1 (relative stereo) [Compound 277]
READOUT_VALUE: -1.24
--
MOLECULE: O=C1S/C(=C\c2ccc3c(cnn3Cc3ccc(Cl)cc3C(F)(F)F)c2)C(=O)N1Cc1cscn1 [Compound 93]
READOUT_VALUE: -1.85

I'm hoping you can list log10 of EC50 for every molecule here, please.
1. CN(C)CCCN1C(=O)S/C(=C\c2ccc3c(cnn3Cc3ccc(C(F)(F)F)cc3C(F)(F)F)c2)C1=O [Compound 6]
2. O=C1S/C(=C\c2ccc3c(cnn3Cc3ccc(Cl)cc3C(F)(F)F)c2)C(=O)N1C1(C(=O)O)CCC1 [Compound 235]
3. O=C1S/C(=C\c2ccc3c(cnn3Cc3ccc(Cl)cc3C(F)(F)F)c2)C(=O)N1CCN1CCCC1 [Compound 111]
4. O=C(O)[C@@H]1CCC[C@H]1N1C(=O)S/C(=C\c2ccc3c(cnn3Cc3ccc(Cl)cc3C(F)(F)F)c2)C1=O [Compound 142]
5. O=C1S/C(=C\c2ccc3c(cnn3Cc3ccc(Cl)cc3C(F)(F)F)c2)C(=O)N1CC1CNC1 [Compound 101]

Response:
1. -1.46
2. -1.35
3. -1.77
4. -1.42
5. -1.17

For each entry beneath this line, provide reported log10 of EC50.
1. NC1(CN2C(=O)S/C(=C\c3ccc4c(cnn4Cc4ccc(Cl)cc4C(F)(F)F)c3)C2=O)CCOCC1 [Compound 308]
2. CN(C)C[C@H](O)CN1C(=O)S/C(=C\c2ccc3c(cnn3Cc3ccc(Cl)cc3C(F)(F)F)c2)C1=O [Compound 293]
3. CS(=O)(=O)NN1C(=O)S/C(=C\c2ccc3c(cnn3Cc3ccc(Br)cc3C(F)(F)F)c2)C1=O [Compound 364]
4. COc1ccc(Cn2ncc3cc(/C=C4\SC(=O)N(CCN5CCN(CCO)CC5)C4=O)ccc32)c(C(F)(F)F)c1 [Compound 16]
5. CCOC(=O)CN1C(=O)S/C(=C\c2ccc3c(c2)nnn3Cc2ccc(Cl)cc2C(F)(F)F)C1=O [Compound 259]
6. CC(C)[C@H](N)CN1C(=O)S/C(=C\c2ccc3c(cnn3Cc3ccc(Cl)cc3C(F)(F)F)c2)C1=O [Compound 162]
7. NS(=O)(=O)CN1C(=O)S/C(=C\c2ccc3c(cnn3Cc3ccc(C(F)(F)F)cc3C(F)(F)F)c2)C1=O [Compound 68]

Response:
1: -2.30; 2: -1.46; 3: -2.40; 4: -1.15; 5: -1.66; 6: -1.49; 7: -0.91

Parameters: items (list). Returns: log10 of EC50 for each item.
1. COc1ccc(Cn2ncc3cc(/C=C4\SC(=O)N(C5CCC(C(=O)O)CC5)C4=O)ccc32)c(C(F)(F)F)c1 (stereo not drawn) [Compound 22]
2. O=C1S/C(=C\c2ccc3c(cnn3Cc3ccc(Cl)cc3C(F)(F)F)c2)C(=O)N1C[C@@H]1CNCCO1 [Compound 183]
3. O=C1S/C(=C\c2ccc3c(cnn3Cc3ccc(Cl)cc3C(F)(F)F)c2)C(=O)N1CCN1CCCNCC1 [Compound 104]
4. CC(=O)Nc1nc(C)c(S(=O)(=O)NCCN2C(=O)S/C(=C\c3ccc4c(cnn4Cc4ccc(Cl)cc4C(F)(F)F)c3)C2=O)s1 [Compound 420]
5. CS(=O)(=O)NN1C(=O)S/C(=C\c2ccc3c(c2)c(Cl)nn3Cc2ccc(Cl)cc2C(F)(F)F)C1=O [Compound 366]
6. COCCN1CCC[C@H]1CN1C(=O)S/C(=C\c2ccc3c(cnn3Cc3ccc(Cl)cc3C(F)(F)F)c2)C1=O [Compound 152]
7. O=C(O)C(C1CCOCC1)N1C(=O)S/C(=C\c2ccc3c(cnn3Cc3ccc(Cl)cc3C(F)(F)F)c2)C1=O (stereo not drawn) [Compound 219]
8. CNN1C(=O)S/C(=C\c2ccc3c(cnn3Cc3ccc(C(F)(F)F)cc3C(F)(F)F)c2)C1=O [Compound 357]

Response:
-2.10
-0.77
-0.95
-1.55
-2.22
-1.57
-1.38
-1.41

Please look at the items below and tell me log10 of EC50 for each one, in order.
1. O=C1S/C(=C\c2ccc3c(cnn3Cc3ccc(C(F)(F)F)cc3C(F)(F)F)c2)C(=O)N1[C@@H]1CCNC[C@H]1F (relative stereo) [Compound 274]
2. O=C1S/C(=C\c2ccc3c(cnn3Cc3ccc(Cl)cc3C(F)(F)F)c2)C(=O)N1[C@@H]1CNCC[C@H]1O (relative stereo) [Compound 279]
3. O=C(O)CN1C(=O)S/C(=C\c2ccc3c(cnn3[C@@H]3CCc4cc(Cl)ccc43)c2)C1=O [Compound 179]

Response:
1. -1.06
2. -1.66
3. 0.54
